Can you tell me Percent Control for the items I'm about to list?
# Tested on: DAPK2
# COND: Compound Concentration (nM):1000;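 further: KINOMEscan scanMAX binding as percent activity remaining versus control; lower means stronger binding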
Kindly format the answer as number then unit.

Please give the measured Percent Control for this compound: NS(=O)(=O)c1ccc(N/N=C2\C(=O)Nc3ccc(Cl)cc32)cc1 [GW280670X] 100%

Please give the measured Percent Control for this compound: CCS(=O)(=O)c1ccc(OC)c(Nc2ncc(-c3cccc(F)c3)o2)c1 [GW621970X] 100%

Please give the measured Percent Control for this compound: Cc1cc(O)cc(C)c1/C=C/c1cncc(C(N)=O)c1 [GW435821X] 100%

Please give the measured Percent Control for this compound: NS(=O)(=O)c1ccc(N/N=C2\C(=O)Nc3ccc(C(=O)NCCc4c[nH]cn4)cc32)cc1 [GW300660X] 100%

Please give the measured Percent Control for this compound: CN(C)CCNC(=O)Nc1ccc(N(C)c2ccnc(Nc3ccc(CS(C)(=O)=O)cc3)n2)cc1.Cl [GW830900A] 100%

Please give the measured Percent Control for this compound: COc1ccccc1-c1cc(/C=C2\C(=O)Nc3ncc(Br)cc32)cc(Br)c1O [GW442130X] 88%

Please give the measured Percent Control for this compound: COc1cc(/C=N/Nc2ncnc3[nH]ncc23)ccc1O [GW578748X] 75%

Please give the measured Percent Control for this compound: Cl.c1ccc(Cc2nc3ccc(Nc4ncnc5ccccc45)cc3[nH]2)cc1 [GR269666A] 99%

Please give the measured Percent Control for this compound: "COc1ccc2cc(-c3c(-c4ccncc4)nc(-c4ccc(S(C)(=O)=O)cc4C)n3C)ccc2c1" 88%

* * *

# Tested on: PIK3CA
# COND: Compound Concentration (nM):1000
Can you tell me Percent Control for the items I'm about to list?
# value in %; strip the unit string

Please give the measured Percent Control for this compound: "O=C(Nc1n[nH]c2nc(-c3ccc(O)cc3)c(Br)cc12)C1CC1" 100

Please give the measured Percent Control for this compound: NS(=O)(=O)c1ccc(Nc2ncc(-c3ccccc3)o2)cc1 [GW572399X] 100

Please give the measured Percent Control for this compound: CN1CCN(C(=O)c2ccc(NC(=O)Nc3ccc(N(C)c4ccnc(Nc5ccc(CS(C)(=O)=O)cc5)n4)cc3)cc2)CC1.Cl [GW830263A] 98

Please give the measured Percent Control for this compound: Cl.O=C(Nc1ccc(Oc2ccc3[nH]c(NC(=O)c4ccccc4)nc3c2)cc1)Nc1cc(C(F)(F)F)ccc1F [GW709042A] 100

Please give the measured Percent Control for this compound: "CCn1c(-c2nonc2N)nc2c(C#CC(C)(C)O)nc(OCCNC)cc21.Cl" 75

Please give the measured Percent Control for this compound: CC(C)COC(=O)c1ccc2c(c1)/C(=C/Nc1ccc(S(N)(=O)=O)cc1)C(=O)N2 [GW416981X] 100

Please give the measured Percent Control for this compound: CCS(=O)(=O)c1ccc(OC)c(Nc2ncc(-c3cccc(OC)c3)o2)c1 [GW580509X] 100

Please give the measured Percent Control for this compound: COc1ccc2c(-c3ccnc(Nc4cccc(OC(F)(F)F)c4)n3)cnn2n1 [GW810372X] 100

Please give the measured Percent Control for this compound: Cl.O=S1CCN(Cc2ccc(-c3ccc4ncnc(Nc5ccc(OCc6ccccc6)c(F)c5)c4c3)o2)CC1 [GW576924A] 100

Please give the measured Percent Control for this compound: COc1cccc(-c2c[nH]c3c(N/N=C/c4ccncc4)ncnc23)c1 [GW814408X] 95

Please give the measured Percent Control for this compound: O=C1Nc2ccc(C(=O)c3ccco3)cc2C1=Cc1cc(Cl)c(O)c(Cl)c1 [GW406108X] 91

Please give the measured Percent Control for this compound: COc1cc2ncnc(Nc3ccc4c(cnn4Cc4ccccc4)c3)c2cc1OC.Cl [GW282449A] 100

Please give the measured Percent Control for this compound: C/C(Nc1ccc(S(N)(=O)=O)cc1)=C1/C(=O)Nc2ccccc21 [GW335962X] 100

Please give the measured Percent Control for this compound: NS(=O)(=O)c1ccc(N/N=C2\C(=O)Nc3ccc(Cl)cc32)cc1 [GW280670X] 100

Please give the measured Percent Control for this compound: C[C@@H](Oc1cc(-n2cnc3ccc(OC4CCN(C)CC4)cc32)sc1C(N)=O)c1ccccc1Cl [GSK579289A] 65

Please give the measured Percent Control for this compound: NS(=O)(=O)c1ccc(N/N=C2\C(=O)Nc3ccc(C(=O)NCCc4c[nH]cn4)cc32)cc1 [GW300660X] 100

Please give the measured Percent Control for this compound: COc1ccccc1-c1cc(/C=C2\C(=O)Nc3ncc(Br)cc32)cc(Br)c1O [GW442130X] 83

* * *

# Test system: AMPK-alpha1
# Construct: gene PRKAA1
# COND: Compound Concentration (nM):1000
EXPERIMENTAL READOUT: Percent Control (%)
# value in %; strip the unit string

Please give the measured Percent Control for this molecule: "NS(=O)(=O)c1ccc(N/N=C2\C(=O)Nc3ccc(-c4cnco4)cc32)cc1" 95

Please give the measured Percent Control for this molecule: CCS(=O)(=O)c1ccc(OC)c(Nc2ncc(-c3cccc(OC)c3)o2)c1 [GW580509X] 100

Please give the measured Percent Control for this molecule: CN(C)c1cc2c(Nc3ccc4c(cnn4Cc4ccccc4)c3)ncnc2cn1 [GW282974X] 90

Please give the measured Percent Control for this molecule: COc1ccccc1-c1cc(/C=C2\C(=O)Nc3ncc(Br)cc32)cc(Br)c1O [GW442130X] 100

Please give the measured Percent Control for this molecule: NS(=O)(=O)c1ccc(Nc2ncc(-c3ccccc3)o2)cc1 [GW572399X] 100

* * *

Can you tell me Percent Control for the items I'm about to list?
# System: PDPK1
# COND: Compound Concentration (nM):1000
# value in %; strip the unit string

Please give the measured Percent Control for this compound: CC(C)COC(=O)c1ccc2c(c1)/C(=C/Nc1ccc(S(N)(=O)=O)cc1)C(=O)N2 [GW416981X] 55

Please give the measured Percent Control for this compound: C[C@@H](Oc1cc(-n2cnc3ccc(OC4CCN(C)CC4)cc32)sc1C(N)=O)c1ccccc1Cl [GSK579289A] 100

Please give the measured Percent Control for this compound: COc1cc2ncnc(Nc3ccc4c(cnn4Cc4ccccc4)c3)c2cc1OC.Cl [GW282449A] 100

Please give the measured Percent Control for this compound: COc1cc(/C=N/Nc2ncnc3[nH]ncc23)ccc1O [GW578748X] 83

Please give the measured Percent Control for this compound: "COc1ccc2cc(-c3c(-c4ccncc4)nc(-c4ccc(S(C)(=O)=O)cc4C)n3C)ccc2c1" 100

Please give the measured Percent Control for this compound: NS(=O)(=O)c1ccc(Nc2ncc(-c3ccccc3)o2)cc1 [GW572399X] 100

Please give the measured Percent Control for this compound: CC1=C(C(=O)Nc2ccc3[nH]ncc3c2)C(c2ccc(Cl)c(Cl)c2)CC(=O)N1 (centres unmarked) [GSK299115A] 100

Please give the measured Percent Control for this compound: "COc1cc(C)c(N(C)C(=O)CN(C)C)cc1Nc1nc(Nc2cccc(F)c2C(N)=O)c2cc[nH]c2n1" 97

* * *

# System: YANK1
# Construct: gene STK32A
# COND: Compound Concentration (nM):1000
Where Percent Control equals or exceeds 90%, the correct label is criterion met; where it does not, the label is criterion not met.

Is reported Percent Control greater than or equal to 90% here: Cl.O=C(Nc1ccc(Oc2ccc3[nH]c(NC(=O)c4ccco4)nc3c2)cc1)Nc1cc(C(F)(F)F)ccc1F [GW683134A] criterion not met

Is reported Percent Control greater than or equal to 90% here: NS(=O)(=O)c1ccc(N/N=C2\C(=O)Nc3ccc(Cl)cc32)cc1 [GW280670X] criterion met

Is reported Percent Control greater than or equal to 90% here: "CCn1c(-c2nonc2N)nc2c(C#CC(C)(C)O)nc(OCCNC)cc21.Cl" criterion not met

Is reported Percent Control greater than or equal to 90% here: O=C1Nc2ccc(C(=O)c3ccco3)cc2C1=Cc1cc(Cl)c(O)c(Cl)c1 [GW406108X] criterion met

Is reported Percent Control greater than or equal to 90% here: Nc1ncnc2occ(-c3ccc(NC(=O)Nc4cc(C(F)(F)F)ccc4F)cc3)c12 [GW770249X] criterion met

Is reported Percent Control greater than or equal to 90% here: NS(=O)(=O)c1ccc(N/N=C2\C(=O)Nc3ccc(C(=O)NCCc4c[nH]cn4)cc32)cc1 [GW300660X] criterion met

Is reported Percent Control greater than or equal to 90% here: CN(C)CCNC(=O)Nc1ccc(N(C)c2ccnc(Nc3ccc(CS(C)(=O)=O)cc3)n2)cc1.Cl [GW830900A] criterion not met

Is reported Percent Control greater than or equal to 90% here: C[C@@H](Oc1cc(-n2cnc3ccc(OC4CCN(C)CC4)cc32)sc1C(N)=O)c1ccccc1Cl [GSK579289A] criterion not met

Is reported Percent Control greater than or equal to 90% here: CC(C)COC(=O)c1ccc2c(c1)/C(=C/Nc1ccc(S(N)(=O)=O)cc1)C(=O)N2 [GW416981X] criterion met

Is reported Percent Control greater than or equal to 90% here: COc1ccc2[nH]c3c4[nH]c5ccc(OC)cc5c4c4c(c3c2c1)C(=O)NC4=O [GW296115X] criterion not met

Is reported Percent Control greater than or equal to 90% here: COC(=O)Nc1nc2ccc(Oc3ccc(NC(=O)Nc4cc(C(F)(F)F)ccc4F)cc3)cc2s1.Cl [GW693917A] criterion met
